Test system: A549
Test: cell viability of A549 cells, 1 and 10 uM
Type: cell-based
Conditions: Homo sapiens, 10 uM
Excerpt: [Worded in the source for another cell line; this cell line is reported under the same test.] Sorafenib (Nexavar), erlotinib (Tarceva) and Paclitaxel were kindly provided by Bayer Pharmaceuticals (Pittsburgh, Pa., USA) and Roche Pharmaceuticals (Basel, Switzerland) respectively. Okadaic acid (OA) was purchased from Cayman Chemical (Ann Arbor, Mich., USA) and z-VAD-fmk was obtained from Sigma (St. Louis, Mo., USA). […]
Assignment: determine reported viability at 10 µM for the given molecules.

Simply: `FC(F)(F)c1cc(Nc2nc3ccccc3nc2Cl)ccc1Cl` , A549, viability at 10 µM = 71.6%

Simply: `O=[N+]([O-])c1ccc2nc(Nc3ccc(F)cc3)c(Nc3ccc(F)cc3)nc2c1` , A549, viability at 10 µM = 7.8%

Simply: `C#Cc1cccc(Nc2nc3ccccc3nc2Nc2cccc(C#C)c2)c1` , A549, viability at 10 µM = 9.7%

Simply: `O=[N+]([O-])c1ccc2nc(Nc3cccc(O)c3)c(Nc3cccc(O)c3)nc2c1` , A549, viability at 10 µM = 9.5%

Simply: `C#Cc1cccc(Nc2nc3cc([N+](=O)[O-])ccc3nc2Nc2ccc(O)cc2)c1` , A549, viability at 10 µM = 20.9%

Simply: `C#Cc1cccc(Nc2nc3cc([N+](=O)[O-])ccc3nc2Nc2ccc(OC)cc2)c1` , A549, viability at 10 µM = 113%

Simply: `COc1ccc(Nc2nc3ccc([N+](=O)[O-])cc3nc2Nc2ccc(OC)cc2)cc1` , A549, viability at 10 µM = 10%

* * *

tested on: H2170; test: cell viability of H2170 cells, 1 and 10 uM; format: cell-based; conditions: Homo sapiens, NCI-H2170; 1 uM
property: viability at 1 µM (%)
# number only, unit % dropped from output

viability at 1 µM recorded for this compound, `c1ccc(CNc2nc3ccccc3nc2NCc2ccccc2)cc1` , is 100

viability at 1 µM recorded for this compound, `c1ccc(Nc2nc3ccccc3nc2Nc2ccccc2)cc1` , is 103

viability at 1 µM recorded for this compound, `Clc1cc(Cl)cc(Nc2nc3ccccc3nc2Cl)c1` , is 111

viability at 1 µM recorded for this compound, `FC(F)(F)Oc1ccc(Nc2nc3ccccc3nc2Cl)cc1` , is 91.6

viability at 1 µM recorded for this compound, `FC(F)(F)c1cc(Nc2nc3ccccc3nc2Cl)ccc1Cl` , is 98.5

viability at 1 µM recorded for this compound, `C#Cc1cccc(Nc2nc3cc([N+](=O)[O-])ccc3nc2Nc2ccc(OC)cc2)c1` , is 108

viability at 1 µM recorded for this compound, `FS(F)(F)(F)(F)c1ccc(Nc2nc3ccccc3nc2Nc2ccc(S(F)(F)(F)(F)F)cc2)cc1` , is 69.4

viability at 1 µM recorded for this compound, `O=[N+]([O-])c1ccc2nc(Nc3cccc(O)c3)c(Nc3cccc(O)c3)nc2c1` , is 108

viability at 1 µM recorded for this compound, `N#CCc1ccc(Nc2nc3ccccc3nc2Nc2ccc(CC#N)cc2)cc1` , is 92.5

viability at 1 µM recorded for this compound, `C#Cc1cccc(Nc2nc3ccc([N+](=O)[O-])cc3nc2Nc2cccc(C#C)c2)c1` , is 74.7

viability at 1 µM recorded for this compound, `FS(F)(F)(F)(F)c1ccc(Nc2nc3ccccc3nc2Cl)cc1` , is 100

viability at 1 µM recorded for this compound, `COc1cccc(Nc2nc3ccc([N+](=O)[O-])cc3nc2Nc2cccc(OC)c2)c1` , is 113

viability at 1 µM recorded for this compound, `Nc1ccc2nc(Nc3ccc(C(F)(F)F)cc3)c(Nc3ccc(C(F)(F)F)cc3)nc2c1` , is 104

viability at 1 µM recorded for this compound, `Clc1cccc(Nc2nc3ccccc3nc2Nc2cccc(Cl)c2)c1` , is 95

viability at 1 µM recorded for this compound, `C#Cc1cccc(Nc2nc3ccccc3nc2Nc2cccc(C#C)c2)c1` , is 100

viability at 1 µM recorded for this compound, `COc1ccc(Nc2nc3ccc([N+](=O)[O-])cc3nc2Nc2cccc(O)c2)cc1` , is 107

viability at 1 µM recorded for this compound, `CCc1cccc(Nc2nc3ccccc3nc2Nc2cccc(CC)c2)c1` , is 88.4

viability at 1 µM recorded for this compound, `FC(F)(F)c1cc(Nc2nc3ccccc3nc2Nc2ccc(Cl)c(C(F)(F)F)c2)ccc1Cl` , is 78.5

viability at 1 µM recorded for this compound, `FC(F)(F)Oc1ccc(Nc2nc3ccccc3nc2Nc2ccc(OC(F)(F)F)cc2)cc1` , is 77.9

* * *

test system: NCI-H226; experiment: cell viability of NCI-H226 cells, 1 and 10 uM; format: cell-based; conditions: Homo sapiens, 10 uM
Assignment: determine reported viability at 10 µM for the given molecules.
# number only, unit % dropped from output

viability at 10 µM recorded for this molecule, C#Cc1cccc(Nc2nc3cc([N+](=O)[O-])ccc3nc2Nc2ccc(OC)cc2)c1 [TD605] , is 5.5

viability at 10 µM recorded for this molecule, FS(F)(F)(F)(F)c1ccc(Nc2nc3ccccc3nc2Cl)cc1 [TD81] , is 92

viability at 10 µM recorded for this molecule, COc1cccc(Nc2nc3ccc([N+](=O)[O-])cc3nc2Nc2cccc(OC)c2)c1 [TD608] , is 40.6

viability at 10 µM recorded for this molecule, FC(F)(F)Oc1ccc(Nc2nc3ccccc3nc2Nc2ccc(OC(F)(F)F)cc2)cc1 [TD65] , is 14.1

viability at 10 µM recorded for this molecule, c1ccc(CNc2nc3ccccc3nc2NCc2ccccc2)cc1 [TD54, N^2,N^3-dibenzylquinoxaline-2,3-diamine] , is 111

viability at 10 µM recorded for this molecule, CCc1cccc(Nc2nc3ccccc3nc2Nc2cccc(CC)c2)c1 [TD59] , is 32.5

viability at 10 µM recorded for this molecule, Clc1cc(Cl)cc(Nc2nc3ccccc3nc2Cl)c1 [TD78] , is 111

viability at 10 µM recorded for this molecule, FC(F)(F)c1cc(Nc2nc3ccccc3nc2Cl)ccc1Cl [TD79] , is 125

viability at 10 µM recorded for this molecule, O=[N+]([O-])c1ccc2nc(Nc3cccc(O)c3)c(Nc3cccc(O)c3)nc2c1 [TD613] , is 7

* * *

system: H2170; assay: cell viability of H2170 cells, 1 and 10 uM; type: cell-based; details: Homo sapiens, NCI-H2170; 1 uM
property: viability at 1 µM (%)
# number only, unit % dropped from output

viability at 1 µM recorded for this molecule, `c1ccc(Oc2ccc(Nc3nc4ccccc4nc3Nc3ccc(Oc4ccccc4)cc3)cc2)cc1` , is 99.7

viability at 1 µM recorded for this molecule, `COc1ccc(Nc2nc3ccc([N+](=O)[O-])cc3nc2Nc2ccc(OC)cc2)cc1` , is 112

viability at 1 µM recorded for this molecule, `Cc1ccc(F)c(Nc2nc3ccccc3nc2Nc2cc(C)ccc2F)c1` , is 92.8

viability at 1 µM recorded for this molecule, `FC(F)(F)c1cccc(Nc2nc3ccccc3nc2Nc2cccc(C(F)(F)F)c2)c1` , is 72.3

viability at 1 µM recorded for this molecule, `Cc1ccc(Nc2nc3ccccc3nc2Nc2ccc(C)c(O)c2)cc1O` , is 102

* * *

system: NCI-H226; test: cell viability of NCI-H226 cells, 1 and 10 uM; format: cell-based; conditions: Homo sapiens, 10 uM
property: viability at 10 µM (%)
# number only, unit % dropped from output

viability at 10 µM recorded for this molecule, `C#Cc1cccc(Nc2nc3ccc([N+](=O)[O-])cc3nc2Nc2cccc(C#C)c2)c1` , is 5.3

viability at 10 µM recorded for this molecule, `c1ccc(Oc2ccc(Nc3nc4ccccc4nc3Nc3ccc(Oc4ccccc4)cc3)cc2)cc1` , is 56.8

viability at 10 µM recorded for this molecule, `N#CCc1ccc(Nc2nc3ccccc3nc2Nc2ccc(CC#N)cc2)cc1` , is 90.1

viability at 10 µM recorded for this molecule, `Cc1ccc(F)c(Nc2nc3ccccc3nc2Nc2cc(C)ccc2F)c1` , is 74.9

viability at 10 µM recorded for this molecule, `Cc1ccc(Nc2nc3ccccc3nc2Nc2ccc(C)c(O)c2)cc1O` , is 4.7

* * *

test system: NCI-H226; assay: cell viability of NCI-H226 cells, 1 and 10 uM; assay type: cell-based; settings: Homo sapiens, 10 uM
Label y when viability at 10 µM < 20%; otherwise n.

Item `O=[N+]([O-])c1ccc2nc(Nc3ccc(F)cc3)c(Nc3ccc(F)cc3)nc2c1` : viability at 10 µM beneath 20%, strictly? y

Item `C#Cc1cccc(Nc2nc3ccccc3nc2Nc2cccc(C#C)c2)c1` : viability at 10 µM beneath 20%, strictly? y

Item `Clc1cccc(Nc2nc3ccccc3nc2Nc2cccc(Cl)c2)c1` : viability at 10 µM beneath 20%, strictly? y

Item `FC(F)(F)Oc1ccc(Nc2nc3ccccc3nc2Cl)cc1` : viability at 10 µM beneath 20%, strictly? n

Item `COC(=O)c1ccc2nc(Nc3ccc(OC(F)(F)F)cc3)c(Nc3ccc(OC(F)(F)F)cc3)nc2c1` : viability at 10 µM beneath 20%, strictly? y

Item `COc1ccc(Nc2nc3ccc([N+](=O)[O-])cc3nc2Nc2cccc(O)c2)cc1` : viability at 10 µM beneath 20%, strictly? n
